System: RXF 393
test description: NCI tumour cell line growth inhibition, 48 h
Active and inactive are the calls of the source. Cut-off read from the data, not from the text of the source: active = GI50 up to about 1.1 µM and inactive = higher.
reported property: GI50

Would you please look over these solved cases?
If you can, please state the reported GI50 value of `CC1(C)CCC[C@]2(C)[C@@H]1CC[C@@]13O[C@@H]1C1=C(CO)C(=O)OC1=C[C@@H]23` .
19.9 µM (inactive)

If you can, please state the reported GI50 value of `Nc1nc(S)nc2snnc12` .
> 100 µM (inactive)

Quick batch: GI50 for everything below.
1. O=Cc1ccc2[nH]c(=O)oc2c1
2. CCOC(=O)NC(=O)c1cn(CCSCCOC(=O)NCCCCCCNC(=O)OCCSCCn2cc(C(=O)NC(=O)OCC)c(=O)n(C)c2=O)c(=O)n(C)c1=O

1. 94.8 µM (inactive)
2. 27.6 µM (inactive)

Quick batch: GI50 for everything below.
1. N/C(=N\Nc1nc2cc([N+](=O)[O-])ccc2o1)c1ccccn1
2. COC(=O)/C(=C\C(=O)c1ccc(Br)cc1)NN=C(c1ccccc1)c1ccccc1
3. CN(C)/C=N/c1ccc2c3c(cccc13)-c1ccccc1-2
4. COc1ccc(C(=O)C(c2ccc(OC)cc2)C2C(=O)Oc3ccccc32)cc1 (stereo not given)
5. O=[N+]([O-])c1cc(CCl)ccc1CCl
6. CS(=O)(=O)c1nc(-c2cc3c(c(S(C)(=O)=O)n2)CCCC3)cc2c1CCCCC2

0.0622 µM (active)
> 10 µM (inactive)
7.83 µM (inactive)
> 10 µM (inactive)
0.585 µM (active)
48.6 µM (inactive)

---

Tested on: OVCAR-4
test description: NCI tumour cell line growth inhibition, 48 h
Active and inactive are the calls of the source. No stated cut-off is given here; in the data, active = GI50 up to about 1.1 µM and inactive = higher.
Form entry, call: pick from active, inactive

Some entries whose results are on file:
Recorded test outcome, item CCC1(N)C(=O)OCc2c1cc1n(c2=O)Cc2cc3ccccc3nc2-1 (stereo not given)
inactive

Recorded test outcome, item `O=C(c1ccc(Cl)cc1Cl)N(Cc1cccnc1)C(=S)N(Cc1cccnc1)C(=O)c1ccc(Cl)cc1Cl`
inactive

Recorded test outcome, item C/C=C1\C(=O)OC2CCN3CCC(COC(=O)C(C)(O)C(C)C1O)C23 (stereo not given)
inactive

Recorded test outcome, item `CC(=O)Nc1ccc(Nc2nc(=O)[nH]c(=O)[nH]2)cc1`
inactive

Recorded test outcome, item `Cc1cccc2c(=O)c([Se]c3coc4c(C)cccc4c3=O)coc12`
inactive

Recorded test outcome, item Cc1cccc(C(C)C)c1NC(=O)CC1C(=O)Nc2ccccc2S1(=O)=O (stereo not given)
inactive

Recorded test outcome, item CN(C)CCNC1=Nc2ccccc2C(=S)N2CSCC12 (stereo not given)
inactive

Recorded test outcome, item CC(C(O)c1ccccc1)C(O)(C(F)(F)F)C(F)(F)F (stereo not given)
inactive

Recorded test outcome, item CSc1nc2c(nc(N)n2C2OCC(O)C(O)C2O)c(=O)n1C (stereo not given)
inactive

Recorded test outcome, item COC(=O)CNC(=O)Nc1cc(N2C(=O)ON3C2C(C)(C)N(O)C3(C)C)ccc1C (stereo not given)
inactive

Others:
Recorded test outcome, item COC1/C(=C\c2ccccc2I)c2ccccc2N1C(C)=O (stereo not given)
inactive

Recorded test outcome, item Clc1ccc(OCC2NC3CCC2CC3)cn1 (stereo not given)
inactive

Recorded test outcome, item `O=C1c2ccccc2-c2c1c(-c1cccc(Br)c1)nc1ccc3ccccc3c21`
inactive

Recorded test outcome, item `O=[N+]([O-])c1cc(CCl)ccc1CCl`
inactive

Recorded test outcome, item COC(OC)C1(c2ccccc2)Oc2ccccc2C1=O (stereo not given)
inactive

---

Test system: SF-268
test description: NCI tumour cell line growth inhibition, 48 h
Activity calls are given as the source filed them. No stated cut-off is given here; in the data, active = GI50 up to about 1.1 µM and inactive = higher.
Form entry, call: pick from YES for active, NO for inactive

Some entries whose results are on file:
Recorded test outcome, item `O=C1NCC2(CCNCC2)N1`
NO

Recorded test outcome, item `O=C1Oc2ccccc2C(=O)/C1=C/NC(=S)NCCc1ccccc1`
NO

Recorded test outcome, item `CN(C)/C=N/c1ccc2c3c(cccc13)-c1ccccc1-2`
NO

Recorded test outcome, item C=CCC1(C(=O)OC)CCC/C(=N\O)C1 (stereo not drawn)
NO

Recorded test outcome, item `O=C(NNc1ccc([N+](=O)[O-])cc1[N+](=O)[O-])/C(O)=C\C(=O)c1ccccc1`
NO

Recorded test outcome, item `CN(C)Cc1cc(/N=N/c2c(Cl)cccc2Cl)ccc1O`
NO

Recorded test outcome, item `O=C(/C=C\c1cccc2ccccc12)c1cccs1`
NO

Recorded test outcome, item CC1C(=O)CC(c2cccs2)N(N=O)C1c1cccs1 (stereo not drawn)
NO

Others:
Recorded test outcome, item `COc1ccc(NC(C)=O)c(C(=O)CCNC(C)=O)c1`
NO

Recorded test outcome, item `COC(=O)C1(C(=O)OC)C/C(C)=C(/C)SCCCS1`
NO

Recorded test outcome, item `CCN(CC)CCOCCn1c2c(c3ccccc31)CCCC2`
NO

Recorded test outcome, item CSc1nc2c(nc(N)n2C2OCC(O)C(O)C2O)c(=O)n1C (stereo not drawn)
NO

Recorded test outcome, item `COc1c(C)c2c(c(=O)c3c(C)cccc3n2C)c2c1c(=O)c1c(C)cccc1n2C`
NO

Recorded test outcome, item O=C(c1ccccc1)C1C[C@H]2CO[C@H](c3ccccc3)N2C1=O (stereo partly drawn)
NO

Recorded test outcome, item `CC1=C[C@@H]2Cc3occc3C(C)(C)[C@@H]2CC1`
NO

Recorded test outcome, item `COc1cc2c(cc1OCCCCCCCCN1C(=O)c3cccc4cccc(c34)C1=O)N=C[C@@H]1CCCN1C2=O`
NO

Recorded test outcome, item `C[N+](C)(CCNC(=O)c1cccc2cc3ccccc3nc12)Cc1ccc([N+](=O)[O-])s1`
NO

Recorded test outcome, item COC(=O)C1=C(C)NC(C)=C([N+](=O)[O-])C1c1cccc(N=O)c1 (stereo not drawn)
NO

Recorded test outcome, item CCOC(=O)c1ccc2c(c1)nc1n2C(c2c(F)cccc2F)SC1 (stereo not drawn)
NO

Recorded test outcome, item C/C=C1\CC(C(=O)OCC)CCCCCCC1=O (stereo not drawn)
NO

---

System: UACC-62
test description: NCI tumour cell line growth inhibition, 48 h
Active and inactive are the calls of the source. Cut-off read from the data, not from the text of the source: active = GI50 up to about 1.1 µM and inactive = higher.
Form entry, call: pick from active, inactive

Some entries whose results are on file:
Recorded test outcome, item `CCn1c2ccccc2c2ccc(C3C(C(=O)OC)=C(C)NC(C)=C3C(=O)OC)cc21`
inactive

Recorded test outcome, item `CN(C)/C=N/c1ccc2c3c(cccc13)-c1ccccc1-2`
inactive

Recorded test outcome, item CCOC(=O)C1Nc2ccccc2[C@H]2OCC[C@@H]12 (some centres undefined)
inactive

Others:
Recorded test outcome, item Cc1cc(Cl)ccc1NC(=O)C1C(=O)C(=O)N(c2ccc(Cl)cc2C)C1=O (centres undefined)
inactive

Recorded test outcome, item `COc1cc2c(cc1OC)C(=O)/C(=C/c1cc(C)c(O)c(C)c1)C2`
active

Recorded test outcome, item `Cc1ccc(F)cc1NC(=O)O/N=C(\Cl)C(C)C`
inactive

Recorded test outcome, item CC(=O)OCC(=O)O[C@@H]1[C@H]2[C@@H](OC(=O)c3ccccc3)[C@@H](C)C[C@]2(O)[C@H](OC(C)=O)[C@@]2(C)C(OC(C)=O)[C@]1(OC(C)=O)C[C@H]1C(=O)C(C)(C)C[C@@H]12 (some centres undefined)
inactive

Recorded test outcome, item C/C1=C\CC[C@@]2(C)O[C@@H]2C[C@@H](C2(C)CO2)CC/C(C)=C/CC1 (some centres undefined)
inactive

Recorded test outcome, item `COC(=O)/C=C1/OC(c2ccccc2)=C(Br)C1=O`
inactive

---

Test system: UACC-62
test description: NCI tumour cell line growth inhibition, 48 h
Calls of active or inactive are those of the source. Cut-off read from the data, not from the text of the source: active = GI50 up to about 1.1 µM and inactive = higher.
Exercise: for every item that follows, state its recorded GI50.

Would you please look over these solved cases?
// fetch UACC-62 GI50 for `CCOC(=O)N1CCC(=C2c3ccc(Cl)cc3CCc3cccnc32)CC1`
4.73 µM (inactive)

// fetch UACC-62 GI50 for `COc1cc2c(cc1OCCCCCCCCN1C(=O)c3cccc4cccc(c34)C1=O)N=C[C@@H]1CCCN1C2=O`
13.5 µM (inactive)

// fetch UACC-62 GI50 for COc1ccc(C(=O)C(c2ccc(OC)cc2)C2C(=O)Oc3ccccc32)cc1 (centres undefined)
> 10 µM (inactive)

// fetch UACC-62 GI50 for COC(=O)[C@@]1(C)CCC[C@]2(C(=O)O)C3Cc4occc4[C@H](C)[C@@H]3CCC21 (some centres undefined)
62.5 µM (inactive)

// fetch UACC-62 GI50 for `O=CNNC(=O)CSc1nc2ccc(I)cc2c(=O)n1Cc1ccccc1`
20.3 µM (inactive)

// fetch UACC-62 GI50 for `COc1ccccc1CNCCCCCNCCCCCCCCCCNCCCCCNCc1ccccc1OC`
36.6 µM (inactive)

// fetch UACC-62 GI50 for `COc1ccc2[nH]cc(CCNC(=O)[C@H](Cc3ccccc3)NC(=O)[C@@H](NCC(F)(F)F)C(C)C)c2c1`
19.1 µM (inactive)

// fetch UACC-62 GI50 for CCCCCCCCOCC(O)COC(C)C (centres undefined)
91.4 µM (inactive)

Quick batch: GI50 for everything below.
1. C[n+]1c(-c2ccc(/C=C/C=N\NC(=O)c3ccc(C(=O)N/N=C\C=C\c4ccc(-c5cn6ccccc6[n+]5C)cc4)cc3)cc2)cn2ccccc21
2. Cc1ccc(S(=O)(=O)c2c(N)c3nccn3c3nc4ccccc4nc23)cc1
3. CCOC(=O)C1=C(Nc2ccc(Cl)cc2Cl)OC/C1=N\NS(=O)(=O)c1ccc(C)cc1
4. Clc1ccc(-c2nc(-c3ccc(Cl)cc3)[s+]s2)cc1

1. > 100 µM (inactive)
2. 20.4 µM (inactive)
3. 92.9 µM (inactive)
4. 52.2 µM (inactive)

Quick batch: GI50 for everything below.
1. O=C(O)CCNCCCNCCC(=O)O
2. O=C(C[n+]1ccccc1)N/N=C(\C(=O)NC1=C(Cl)C(=O)c2ccccc2C1=O)c1c(O)c2ccc(O)cc2oc1=O
3. CCOC(=O)C1=C(C)N(NC(N)=O)C(C)(O)C12CCOC2=O (centres undefined)
4. CCc1ccccc1NC(=O)CCc1n[nH]c(=S)o1

1. > 100 µM (inactive)
2. 1.84 µM (inactive)
3. > 100 µM (inactive)
4. > 100 µM (inactive)

Quick batch: GI50 for everything below.
1. CCCCCCC(O)C(=O)OC1C2C(CC1(C)C)C(O)C13OC1C(O)C1(CO1)[C@@]23C (some centres undefined)
2. O=C(CC(=O)n1nc(-c2ccccc2)c(/N=N/c2ccc(Cl)cc2)c1-c1ccccc1)Nc1ccc(Cl)cc1

1. 26 µM (inactive)
2. > 100 µM (inactive)
